A set of molecules tested on EED-EZH2 (Homo sapiens (Human)), with measured IC50:

The cases that follow already have their IC50 on record.
O=C(NC1CC(=O)N(Cc2ccccc2C(F)(F)F)C1)c1cc(C(F)(F)F)ccc1O (stereo not drawn) [NUCC-0202965]
1 to 10 µM
O=C(NC1CCC(=O)N(Cc2ccccc2C(F)(F)F)C1)c1cc(Cl)ccc1O (stereo not drawn) [NUCC-0223819]
1 to 10 µM
O=C(NC1CC(=O)N(Cc2ccccc2C(F)(F)F)C1)c1ccccc1O (stereo not drawn) [NUCC-0202669]
> 50 µM
O=C(NC1CC(=O)N(Cc2ccccc2C(F)(F)F)C1)c1cccnc1 (stereo not drawn) [NUCC-0202663]
> 50 µM
Cc1ccc(O)c(C(=O)N(C)C2CC(=O)N(Cc3ccccc3C(F)(F)F)C2)c1 (stereo not drawn) [NUCC-0202747]
> 50 µM

Please tell me the measured IC50 for Cc1cccc(C(=O)NC2CC(=O)N(Cc3ccccc3C(F)(F)F)C2)c1O (stereo not drawn) [NUCC-0202751] ; system: EED-EZH2 (Homo sapiens (Human)).
Sequence (O75530 2-441): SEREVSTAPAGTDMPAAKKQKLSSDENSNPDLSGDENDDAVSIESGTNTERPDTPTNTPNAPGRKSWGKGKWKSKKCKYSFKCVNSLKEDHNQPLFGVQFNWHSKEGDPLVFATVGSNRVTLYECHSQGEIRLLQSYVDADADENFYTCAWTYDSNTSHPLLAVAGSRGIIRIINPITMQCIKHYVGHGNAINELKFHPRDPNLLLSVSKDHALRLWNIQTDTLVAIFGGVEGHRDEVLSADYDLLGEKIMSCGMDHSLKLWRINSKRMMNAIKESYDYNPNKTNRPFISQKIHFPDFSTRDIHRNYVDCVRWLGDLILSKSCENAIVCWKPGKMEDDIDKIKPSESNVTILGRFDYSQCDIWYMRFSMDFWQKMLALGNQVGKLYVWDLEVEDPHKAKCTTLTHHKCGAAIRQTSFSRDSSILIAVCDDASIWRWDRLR
> 50 µM

Please tell me the measured IC50 for Cc1ccc(O)c(C(=O)NC2CC(=O)N(Cc3ccccc3[N+](=O)[O-])C2)c1 (stereo not drawn) [NUCC-0202653] ; system: EED-EZH2 (Homo sapiens (Human)).
1 to 10 µM

Please tell me the measured IC50 for Cc1ccc(O)c(C(=O)N[C@@H]2CC(=O)N(Cc3ccc(C(F)(F)F)cc3)C2)c1 [NUCC-0202978] ; system: EED-EZH2 (Homo sapiens (Human)).
> 50 µM

Please tell me the measured IC50 for O=C(NC1CC(=O)N(Cc2ccccc2C(F)(F)F)C1)c1cscn1 (stereo not drawn) [NUCC-0202759] ; system: EED-EZH2 (Homo sapiens (Human)).
> 50 µM

Please tell me the measured IC50 for O=C(O)c1ccccc1C(=O)NC1CC(=O)N(Cc2ccccc2C(F)(F)F)C1 (stereo not drawn) [NUCC-0202666] ; system: EED-EZH2 (Homo sapiens (Human)).
> 50 µM

Please tell me the measured IC50 for O=C1CCC(Nc2ncnc3ccc(C(F)(F)F)cc23)CN1Cc1ccccc1C(F)(F)F (stereo not drawn) [NUCC-0223826] ; system: EED-EZH2 (Homo sapiens (Human)).
> 50 µM

---

- tested.on: UniProt:O75530
measurement.name: IC50

The cases that follow already have their IC50 on record.
COC(=O)c1ccccc1CN1CC(NC(=O)c2cc(C(F)(F)F)ccc2O)CCC1=O (stereo not shown) [NUCC-0226237]
1 to 10 µM
CC(C)(CO)C(=O)NC1CC(=O)N(Cc2ccccc2C(F)(F)F)C1 (stereo not shown) [NUCC-0202851]
> 50 µM
Nc1ccc(F)cc1C(=O)NC1CC(=O)N(Cc2ccccc2C(F)(F)F)C1 (stereo not shown) [NUCC-0223634]
> 50 µM

Now examine the next entry.
Please tell me the measured IC50 for Cn1nccc1C(=O)NC1CC(=O)N(Cc2ccccc2C(F)(F)F)C1 (stereo not shown) [NUCC-0202764] ; system: UniProt:O75530.
> 50 µM

---

A set of compounds tested on UniProt O75530, with measured pIC50:
pIC50: −log10 of the molar value.

The cases that follow already have their pIC50 on record.
Cc1ccc(N)c(C(=O)NC2CC(=O)N(Cc3ccccc3C(F)(F)F)C2)c1 (centres unmarked)
< 4.30
O=C(NC1CC(=O)N(Cc2ccccc2C(F)(F)F)C1)c1ccc2ccccc2n1 (centres unmarked)
< 4.30
O=C(NC1CC(=O)N(Cc2ccccc2C(F)(F)F)C1)c1cc(Br)ccc1O (centres unmarked)
5.00 to 6.00
CC1(C)C(=O)N(Cc2ccccc2C(F)(F)F)C[C@H]1NC(=O)c1cc(C(F)(F)F)ccc1O
5.00 to 6.00
Cc1ccc(O)c(C(=O)NC2CC(=O)N(Cc3ccc(Cl)c(Cl)c3)C2)c1 (centres unmarked)
4.30 to 5.00
Cc1ccc(O)c(C(=O)NC2CC(=O)N(Cc3ccccc3C(F)(F)F)C2)c1 (centres unmarked)
< 4.30
O=C(NC1CC(=O)N(Cc2ccccc2C(F)(F)F)C1)c1ccnc(Cl)n1 (centres unmarked)
< 4.30
COC(=O)c1ccccc1CN1CC(NC(=O)c2cc(C)ccc2O)CC1=O (centres unmarked)
5.00 to 6.00

Please tell me the measured pIC50 for O=C1CC(Nc2ncnc3ccc(C(F)(F)F)cc23)CN1Cc1ccccc1C(F)(F)F (centres unmarked) ; system: UniProt O75530.
< 4.30

Please tell me the measured pIC50 for O=C1C(Nc2ncnc3ccc(C(F)(F)F)cc23)CCN1Cc1ccccc1C(F)(F)F (centres unmarked) ; system: UniProt O75530.
< 4.30

Please tell me the measured pIC50 for Cc1ccc(O)c(C(=O)NC2CC(=O)N(Cc3ccccc3C(=O)O)C2)c1 (centres unmarked) ; system: UniProt O75530.
5.00 to 6.00

Please tell me the measured pIC50 for COc1cccc(CC(=O)NC2CC(=O)N(Cc3ccccc3[N+](=O)[O-])C2)c1 (centres unmarked) ; system: UniProt O75530.
< 4.30

Please tell me the measured pIC50 for Cc1ccc(O)c(C(=O)NC2CCC(=O)N(Cc3ccccc3C(F)(F)F)C2)c1 (centres unmarked) ; system: UniProt O75530.
5.00 to 6.00

Please tell me the measured pIC50 for O=C(NC1CC(=O)N(Cc2ccccc2C(F)(F)F)C1)c1ccc(Cl)nc1Cl (centres unmarked) ; system: UniProt O75530.
< 4.30

Attribution: patent US11919855B2
